ASSAYED TARGET: human JAK2 catalytic kinase (JH1) domain (Homo sapiens (Human))
Sequence (O60674 849-1124): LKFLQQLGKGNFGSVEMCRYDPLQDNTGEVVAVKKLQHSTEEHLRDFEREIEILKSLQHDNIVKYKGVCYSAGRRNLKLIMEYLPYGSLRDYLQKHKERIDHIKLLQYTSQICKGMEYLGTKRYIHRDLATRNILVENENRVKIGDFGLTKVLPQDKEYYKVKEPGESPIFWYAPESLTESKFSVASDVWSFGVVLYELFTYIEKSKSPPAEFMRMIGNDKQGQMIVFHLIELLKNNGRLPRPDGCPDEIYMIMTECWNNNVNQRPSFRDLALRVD
EXPERIMENTAL DETAILS: ADP-Glo Kinase Assay, recombinant JAK2 catalytic kinase (JH1) domain
Format: biochemical
MEASUREMENT CONTEXT: recombinant JH1 domain 0.2 nM, 15 μM ATP, JAK3-974 peptide, mean, read-out: JAK2 biochem IC50 (nM) Mean
Binning scheme for IC50: A: < 70 nM; B: ≥ 70 nM and < 1000 nM; C: ≥ 1000 nM

### Prompt Into which bin does this molecule go? CC(F)(F)C(=O)N1C2CCC1CN(c1ncnn3cc(-c4cnn(C(F)F)c4)cc13)C2
### Response C

### Prompt Into which bin does this molecule go? Cn1cc(-c2cc3c(N4CC5CCC(C4)N5C(=O)[C@H]4C[C@H]4C#N)ncnn3c2)cn1 (single isomer, unassigned) [Example 85]
### Response C

### Prompt Into which bin does this molecule go? Cn1cc(-c2cc3c(N4CC5CCC(C4)N5C(=O)C4CC4)ccnn3c2)cn1
### Response B

### Prompt Into which bin does this molecule go? Cc1cc(-c2cc3c(N4CC5CCC(C4)N5C(=O)[C@@H]4C[C@H]4F)ccnn3c2)ccn1
### Response A

### Prompt Into which bin does this molecule go? O=C(C1CCC1(F)F)N1C2CCC1CN(c1ncnn3cc(-c4cnn(C(F)F)c4)cc13)C2 (stereo not drawn)
### Response C

### Prompt Into which bin does this molecule go? Cn1cc(-c2cc3c(N4CC5CCC(C4)N5C(=O)C4(F)CC4)ccnc3[nH]2)c(F)n1
### Response A

### Prompt Into which bin does this molecule go? Cn1cc(-c2cc3c(N4CC5CCC(C4)N5S(=O)(=O)[C@@H]4CC4(F)F)ccnn3c2)cn1
### Response B

Reference source for all entries: patent US20240360157A1
